tested on: MDA-MB-468 breast; experiment: NCI-60 one-dose screen, 48 h (100 = growth as untreated, 0 = no growth, -100 = all killed); conditions: 10 µM
This is part of a sample that, as a whole, favours compounds with a hit. Of some 83,000 tested, about 20% had one in any assay. The source made the active and inactive calls. The calls were made as follows: active = growth percent below 10; inactive = the rest.
# growth per record follows

# count of solved cases: 5
{"columns": ["molecule", "growth"],
 "data": [
  ["CN1CCN(c2ccc(Nc3nc(NCCCNC(=O)C4CCCCC4)c4sccc4n3)cc2)CC1", "49.1% (inactive)"],
  ["CN(C(=O)c1ccc(C(F)(F)F)cc1C(F)(F)F)c1sc2c(c1C#N)CCC(=O)C2", "51.9% (inactive)"],
  ["Cc1noc2c(Cc3ccccc3)nn(CC(=O)N/N=C/c3ccc(Cl)cc3)c(=O)c12", "81% (inactive)"],
  ["O=C(Cc1ccc2c(c1)CN(C1CCC(=O)NC1=O)C2=O)NCCc1ccccc1 (centres undefined)", "-46.1% (active)"],
  ["CCN1CCN(Cc2ccc(NC(=O)c3cccc(-n4cc(-c5ccc(NC(C)=O)nc5)nn4)c3)cc2C(F)(F)F)CC1", "74% (inactive)"]
]}

If you can, please state the reported growth value of C/C(=N\N=C\c1ccc(Cl)c([N+](=O)[O-])c1)c1ccc2c(c1)Nc1ccccc1S2 .
-29.3% (active)

If you can, please state the reported growth value of CCCn1c(=O)c2[nH]c(-c3ccc(OCc4nc5ccc(F)cc5[nH]4)cc3)nc2n(CCC)c1=O .
-12.7% (active)

---

system: LOX IMVI melanoma; assay: NCI-60 one-dose screen, 48 h (100 = growth as untreated, 0 = no growth, -100 = all killed); conditions: 10 µM
This is part of a sample that, as a whole, favours compounds with a hit. Of some 83,000 tested, about 20% had one in any assay. Active and inactive are the calls of the source. Rule for the calls: active = growth percent below 10; inactive = the rest.
# growth per record follows

If you can, please state the reported growth value of O=C(CNc1nc(-c2ccccc2)cs1)Nc1ccc([N+](=O)[O-])cc1 .
-19.5% (active)

If you can, please state the reported growth value of O=C1NC(=NC2CCCCCC2)N/C1=C\c1ccc2ncoc2c1 .
22.2% (inactive)

If you can, please state the reported growth value of Cc1cc(C)nc(NS(=O)(=O)c2ccc(N/C(N)=N/c3nccc(-c4cccs4)n3)cc2)n1 .
77.8% (inactive)

If you can, please state the reported growth value of Cc1ccc(-c2nc3ccc(C(=O)N=Nc4c(O)[nH]c5ccc(Cl)cc45)cc3[nH]2)cc1 .
-100% (active)

If you can, please state the reported growth value of Nc1nc(Nc2ccc(Cl)cc2)n(Cc2cccc(Br)c2)n1 .
-84.6% (active)

---

system: U251 CNS; assay: NCI-60 one-dose screen, 48 h (100 = growth as untreated, 0 = no growth, -100 = all killed); conditions: 10 µM
Compounds without any hit were thinned out: in the full panel of roughly 83,000, 20% have a hit.
# if measured growth < 10%: yes (1)  # else: no (0)

Does the reported growth of the following molecule sit strictly below 10%? CNC(=O)c1cccc(N2CCc3c2ccc(NC(=O)Nc2ccc(N4CCN(C)CC4)c(C(F)(F)F)c2)c3F)c1
yes (1)

Does the reported growth of the following molecule sit strictly below 10%? C#CCNC(=O)[C@]12CCC(C)(C)C[C@H]1C1=CC[C@@H]3[C@@](C)(CCC#N)[C@H](C(=C)C)CC[C@@]3(C)[C@]1(C)CC2
no (0)

Does the reported growth of the following molecule sit strictly below 10%? CC1=C(C(=O)OC(C)C)C(c2ccc(O)cc2)NC(=S)N1 (configuration not stated)
no (0)

Does the reported growth of the following molecule sit strictly below 10%? Cc1cc2c(c(O)c1Br)-c1ncoc1C(=O)[C@]1(C)CC[C@H](C(C)C)[C@H]21
no (0)

Does the reported growth of the following molecule sit strictly below 10%? N#Cc1c(-c2ccc(F)cc2)nc(SCc2ccc(F)cc2)nc1N1CCOCC1
no (0)

Does the reported growth of the following molecule sit strictly below 10%? C=C(C)[C@@H]1CC[C@]2(C(=O)OC)CC[C@]3(C)[C@H](CC[C@@H]4[C@@]5(C)CC[C@H](N)C(C)(C)[C@@H]5CC[C@]43C)[C@@H]12
yes (1)

Does the reported growth of the following molecule sit strictly below 10%? Nc1nc(-c2ccccc2)cs1
no (0)

Does the reported growth of the following molecule sit strictly below 10%? O=C(CS(=O)(=O)c1oc(-c2ccc(Cl)cc2)nc1S(=O)(=O)c1ccc(Cl)cc1)N1CCOCC1
no (0)

Does the reported growth of the following molecule sit strictly below 10%? O=C(c1ccc(O)cc1)C1[C@H](c2ccccc2Br)[C@@H](c2ccccc2)NC12C(=O)Nc1ccc(Br)cc12 (some centres not stated)
no (0)

Reference source for all entries: PubChem BioAssay (NCI)
